ASSAY TARGET: Athe_0598 (Caldicellulosiruptor bescii)
Construct: IMAC purified after 68 °C heat treatment
Sequence (A0ABY1SBM3 entry or part of it): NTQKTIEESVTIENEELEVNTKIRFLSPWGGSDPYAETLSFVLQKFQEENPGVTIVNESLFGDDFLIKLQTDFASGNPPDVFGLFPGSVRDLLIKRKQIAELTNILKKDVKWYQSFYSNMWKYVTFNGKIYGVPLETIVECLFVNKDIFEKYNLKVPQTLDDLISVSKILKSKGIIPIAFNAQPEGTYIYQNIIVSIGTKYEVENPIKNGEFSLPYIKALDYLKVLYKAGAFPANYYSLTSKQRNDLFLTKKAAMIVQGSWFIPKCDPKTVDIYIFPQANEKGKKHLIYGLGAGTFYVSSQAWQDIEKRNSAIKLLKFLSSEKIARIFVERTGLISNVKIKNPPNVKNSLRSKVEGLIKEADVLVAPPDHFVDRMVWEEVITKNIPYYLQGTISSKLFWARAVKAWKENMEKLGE
EXPERIMENT SUMMARY: isothermal titration calorimetry
RUN PARAMETERS: 25 °C; 50 mM HEPES, 300 mM NaCl, pH 7.0 (storage and characterization buffer); single-site model
ASSAY READOUT: Kd
I'd appreciate it if you included the unit after the number.

If you can, please state the reported Kd value of OC[C@H]1O[C@@H](O[C@H]2[C@H](O)[C@@H](O)C(O)O[C@@H]2CO)[C@H](O)[C@@H](O)[C@@H]1O (stereo partly shown) . 2840 nM
